// reported T/C per item
- Test system: P388 leukemia ip, CD2F1 mice, survival T/C
- method description: NCI In Vivo Anticancer Drug Screen. Data for tumor model P388 Leukemia (intraperitoneal) in CD2F1 (CDF1) mice
- assay setup: endpoint: median survival time; dose: 120.0 mg/kg/injection; schedule: Q01DX005 (ip); vehicle: saline with Tween-80; higher = longer survival
Toxic doses and inconclusive results are not listed.

{"columns": ["compound", "T/C"],
 "data": [
  ["CCC(=NCCCCCCN=C(CC)c1cc(C)cc([N+](=O)[O-])c1O)c1cc(C)cc([N+](=O)[O-])c1O.[Fe]", "86 % of control"]
]}

Query :: Requested read-out: T/C. Entry: O=S(=O)(Nc1cccc(Cl)c1)c1ccc(F)cc1
Result :: 99 % of control

Query :: What T/C value was documented for this compound, COc1ccc(C(=O)CC2(O)C(=O)Nc3ccccc32)cc1O (configuration not stated) ?
Result :: 102 % of control

Query :: Entry CCC(/C=C/c1ccccc1)=N\Nc1ccc(Cl)cc1 : reported T/C = ?
Result :: 101 % of control

Query :: Field request: T/C | item: O=C1CSCc2sccc21
Result :: 106 % of control

src = PubChem BioAssay AID330
